- Test system: rape
- ASSAY PROCEDURE: Test B pre/postemergence rape
- Format: in vivo, Brassica napus
- EXPERIMENTAL PARAMETERS: Preemergence, Rate 125 g/ha; scale of 0 to 10 where 0 is no effect and 10 is complete control
A collection of compounds and their measured Plant response rating, Rape

COMPOUND: CC(C)N(C(=O)n1oc(=O)n(C2CCOCC2)c1=O)c1ccccc1
Plant response rating, Rape: 9
--
COMPOUND: C=CC[Si](C)(C)Cn1c(=O)on(C(=O)N(c2ccc(F)cc2)C(C)C)c1=O
Plant response rating, Rape: 0
--
COMPOUND: COC(CCl)n1c(=O)on(C(=O)N(c2ccc(Cl)cc2)C(C)C)c1=O (stereo not drawn)
Plant response rating, Rape: 0
--
COMPOUND: CC(C)N(C(=O)n1oc(=O)n(C(C)C2CC2)c1=O)c1ccc(F)cc1 (stereo not drawn)
Plant response rating, Rape: 4
--
COMPOUND: CC(C)Cn1c(=O)on(C(=O)N(c2ccc(Cl)cc2)C(C)C)c1=O
Plant response rating, Rape: 0
--
COMPOUND: CC(C)N(C(=O)n1oc(=O)n(C(C)C(=S)N(C)C)c1=O)c1ccc(F)cc1 (stereo not drawn)
Plant response rating, Rape: 3
--
COMPOUND: CC(C)N(C(=O)n1oc(=O)n(CCC[Si](C)(C)C)c1=O)c1ccc(F)cc1
Plant response rating, Rape: 0
--
COMPOUND: CC(C)N(C(=O)n1oc(=O)n(CNC(=O)c2ccccc2)c1=O)c1ccc(F)cc1
Plant response rating, Rape: 0
--
COMPOUND: CC(C)N(C(=O)n1oc(=O)n(CCC(=O)N(C)C)c1=O)c1ccc(Cl)cc1
Plant response rating, Rape: 0
